Listing: AC50 of selected compounds
Biological target: Type-1 angiotensin II receptor (Homo sapiens, UniProt P30556); further: assay procedure not described here
Sequence (P30556 whole entry): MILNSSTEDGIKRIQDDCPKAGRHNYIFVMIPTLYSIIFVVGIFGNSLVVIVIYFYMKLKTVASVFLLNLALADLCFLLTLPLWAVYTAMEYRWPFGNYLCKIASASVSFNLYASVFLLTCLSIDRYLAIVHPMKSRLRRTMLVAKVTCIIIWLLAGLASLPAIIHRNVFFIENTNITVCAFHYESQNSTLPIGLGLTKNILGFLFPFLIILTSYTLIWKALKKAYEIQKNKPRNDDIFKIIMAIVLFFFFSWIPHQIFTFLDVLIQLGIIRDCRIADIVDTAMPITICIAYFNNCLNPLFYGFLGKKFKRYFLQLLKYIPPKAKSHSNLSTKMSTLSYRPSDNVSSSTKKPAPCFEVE

Some compounds with recorded AC50:
CCOc1ccccc1OCCN[C@H](C)Cc1ccc(OC)c(S(N)(=O)=O)c1: > 30 µM
COc1ccc(C(Cl)=C(c2ccc(OC)cc2)c2ccc(OC)cc2)cc1: > 30 µM
CN(C)CCCC1(c2ccc(F)cc2)OCc2cc(C#N)ccc21 (stereo not drawn): > 30 µM

(Q) May I ask what AC50 has been recorded for CCC1(C)CC(=O)NC1=O (stereo not drawn) [ETHOSUXIMIDE] ?
(A) > 10 µM

(Q) Note, next up: Oc1cc(O)c2c(c1)O[C@H](c1ccc(O)c(O)c1)[C@@H](O)C2
(A) > 30 µM

(Q) Note, next up: O=C(O)CCCC[C@@H]1SC[C@@H]2NC(=O)N[C@@H]21
(A) > 10 µM

###

Listing: AC50 of selected compounds
target: Progesterone receptor (Homo sapiens, UniProt P06401); further: assay procedure not described here
Sequence (P06401 whole entry): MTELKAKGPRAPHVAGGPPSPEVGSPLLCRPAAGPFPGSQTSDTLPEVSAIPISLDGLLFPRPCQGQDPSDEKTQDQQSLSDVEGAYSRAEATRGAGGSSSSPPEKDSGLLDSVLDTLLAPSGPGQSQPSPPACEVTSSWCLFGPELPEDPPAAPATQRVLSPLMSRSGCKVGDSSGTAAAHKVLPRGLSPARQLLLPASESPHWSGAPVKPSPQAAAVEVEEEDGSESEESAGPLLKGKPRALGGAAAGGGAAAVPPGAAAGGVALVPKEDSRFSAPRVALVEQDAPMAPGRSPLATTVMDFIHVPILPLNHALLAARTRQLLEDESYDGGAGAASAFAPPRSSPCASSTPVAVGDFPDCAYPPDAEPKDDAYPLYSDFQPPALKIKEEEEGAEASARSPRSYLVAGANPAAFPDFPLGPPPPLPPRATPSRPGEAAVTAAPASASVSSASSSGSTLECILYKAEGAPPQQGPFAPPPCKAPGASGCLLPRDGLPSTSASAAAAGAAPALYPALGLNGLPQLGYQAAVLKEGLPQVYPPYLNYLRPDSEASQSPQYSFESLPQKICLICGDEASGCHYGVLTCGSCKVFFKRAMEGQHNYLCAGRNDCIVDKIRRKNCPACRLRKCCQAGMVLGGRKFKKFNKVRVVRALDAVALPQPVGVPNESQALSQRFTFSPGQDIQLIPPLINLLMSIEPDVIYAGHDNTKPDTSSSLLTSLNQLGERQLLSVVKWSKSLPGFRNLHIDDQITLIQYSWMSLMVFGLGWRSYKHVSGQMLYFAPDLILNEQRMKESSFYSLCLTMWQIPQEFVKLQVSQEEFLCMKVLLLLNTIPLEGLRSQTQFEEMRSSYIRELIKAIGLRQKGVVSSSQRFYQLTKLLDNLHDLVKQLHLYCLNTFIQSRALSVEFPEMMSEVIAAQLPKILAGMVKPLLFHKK

Some compounds with recorded AC50:
[H]/N=C(/N)NS(=O)(=O)c1ccc(N)cc1: > 30 µM
Oc1ccc(OCc2ccccc2)cc1: > 30 µM
NS(=O)(=O)c1cc2c(cc1Cl)NC(C(Cl)Cl)NS2(=O)=O (stereo unspecified) [TRICHLORMETHIAZIDE]: > 30 µM

(Q) May I ask what AC50 has been recorded for CC(=O)OC1CN2CCC1CC2 (stereo unspecified) ?
(A) > 30 µM

(Q) Note, next up: COc1cccc2c1C(=O)c1c(O)c3c(c(O)c1C2=O)C[C@@](O)(C(=O)CO)C[C@@H]3O[C@H]1C[C@H](N)[C@@H](O)[C@H](C)O1 [EPIRUBICIN]
(A) > 30 µM

###

Listing: AC50 of selected molecules
target: Adenosine receptor A1 (Homo sapiens, UniProt P30542); further: assay procedure not described here
Sequence (P30542 whole entry): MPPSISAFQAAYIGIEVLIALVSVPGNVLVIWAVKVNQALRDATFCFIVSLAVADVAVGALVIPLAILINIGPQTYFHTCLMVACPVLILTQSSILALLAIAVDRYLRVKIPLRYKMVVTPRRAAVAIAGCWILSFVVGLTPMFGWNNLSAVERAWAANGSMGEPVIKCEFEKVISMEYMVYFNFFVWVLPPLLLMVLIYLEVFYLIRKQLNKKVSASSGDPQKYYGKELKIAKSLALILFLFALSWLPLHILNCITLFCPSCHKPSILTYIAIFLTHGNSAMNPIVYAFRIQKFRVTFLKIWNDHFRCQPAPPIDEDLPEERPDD

O=C1[C@@H]2[C@H]3CC[C@H](C3)[C@@H]2C(=O)N1C[C@@H]1CCCC[C@H]1CN1CCN(c2nsc3ccccc23)CC1: > 30 µM
COc1ccc(-c2cc(=S)ss2)cc1: 5.9 µM
C=CC1=C(C(=O)O)N2C(=O)[C@@H](NC(=O)/C(=N\O)c3csc(N)n3)[C@H]2SC1: > 30 µM
CC(C)(C)NCC(O)COc1cccc2c1CC(O)C(O)C2 (configuration not stated): > 10 µM
CC1NCCOC1c1ccccc1 (configuration not stated): > 30 µM

(Q) May I ask what AC50 has been recorded for NS(=O)(=O)c1ccc(N2CCCCS2(=O)=O)cc1 ?
(A) > 30 µM

(Q) Note, next up: NCCCNCCSP(=O)(O)O
(A) > 30 µM

(Q) Note, next up: Cc1cccc(Nc2ccncc2S(=O)(=O)NC(=O)NC(C)C)c1 [TORSEMIDE]
(A) > 30 µM

(Q) Note, next up: O=C(O)c1nn(Cc2ccc(Cl)cc2Cl)c2ccccc12
(A) > 30 µM

(Q) Note, next up: CC(=O)[C@@]1(O)CC[C@H]2[C@@H]3C[C@H](C)C4=CC(=O)C=C[C@]4(C)[C@@]3(F)[C@@H](O)C[C@@]21C
(A) > 10 µM

(Q) Note, next up: C[C@H](Nc1ncnc2[nH]cnc12)c1cc2cccc(Cl)c2c(=O)n1-c1ccccc1
(A) > 30 µM

(Q) Note, next up: CCC1(C)CC(=O)NC1=O (configuration not stated) [ETHOSUXIMIDE]
(A) > 10 µM

(Q) Note, next up: CC(=O)Oc1cccc2c1C(=O)c1c(OC(C)=O)cc(C(=O)O)cc1C2=O
(A) 24 µM

(Q) Note, next up: Cc1c(C)c2c(c(C)c1O)CCC(C)(COc1ccc(CC3SC(=O)NC3=O)cc1)O2 (configuration not stated)
(A) > 30 µM

(Q) Note, next up: CN(C)CCOC(=O)C(c1ccccc1)C1(O)CCCC1 (configuration not stated) [CYCLOPENTOLATE]
(A) > 10 µM

(Q) Note, next up: O=c1[nH]cc(F)c(=O)[nH]1
(A) > 30 µM

(Q) Note, next up: CCC(=O)O[C@H](CC(=O)O)C[N+](C)(C)C [LEVOCARNITINE PROPIONATE]
(A) > 30 µM

(Q) Note, next up: CCCCOC(=O)C(=O)Nc1cccc(-c2nnn[nH]2)c1
(A) > 30 µM

(Q) Note, next up: O=C(O)COC(=O)Cc1ccccc1Nc1c(Cl)cccc1Cl
(A) > 30 µM

(Q) Note, next up: CCN(CC)Cc1nccn1-c1ccc([N+](=O)[O-])cc1C(=O)c1ccccc1Cl
(A) > 30 µM

(Q) Note, next up: CC1CC(OC(=O)C(O)c2ccccc2)CC(C)(C)C1 (configuration not stated) [CYCLANDELATE]
(A) > 10 µM

(Q) Note, next up: CC(=O)NC[C@H]1CN(c2ccc(N3CCOCC3)c(F)c2)C(=O)O1
(A) > 30 µM

(Q) Note, next up: CN(C)CCOCC(=O)NC12CC3CC(CC(C3)C1)C2
(A) > 30 µM

(Q) Note, next up: CO/N=C(\C(=O)N[C@@H]1C(=O)N2C(C(=O)O)=C(CSc3nc(C)c(CC(=O)O)s3)CS[C@H]12)c1csc(N)n1
(A) > 30 µM

(Q) Note, next up: O=C(O[C@H]1C[N+]2(CCCOc3ccccc3)CCC1CC2)C(O)(c1cccs1)c1cccs1 [ACLIDINIUM BROMIDE]
(A) > 30 µM

// data source = ChEMBL document CHEMBL5291721
